# procedure-text: Plasma pharmacokinetics of Compound 1 in patients with advanced solid tumor malignancies and TGCT
# Format: in vivo, human
# details: human, plasma, oral, 10 mg, Cohort 2 10 mg QD x 5 d, BIW maintenance dose; C1D8; Geo Mean; read-out: AUC0-8 h
readout-label: AUC(0-t)
Dear colleague, please send the value followed by its unit.

Sample Cc1nc(-c2cnc(NC(C)C)n(C)c2=O)ccc1Oc1ccnc(-c2cnn(C)c2)c1 [Compound 1] — what was its AUC(0-t)?
1730 ng·h/mL

----------
# procedure-text: Plasma pharmacokinetics of Compound 1 in patients with advanced solid tumor malignancies and TGCT
# Format: in vivo, human
# details: human, plasma, oral, 10 mg, Cohort 1 10 mg QD; Day -7; Geo Mean
readout-label: Cmax (µg/mL)
Numbers only, in µg/mL.

Dear colleague, I am looking for the recorded Cmax of the following compound: Cc1nc(-c2cnc(NC(C)C)n(C)c2=O)ccc1Oc1ccnc(-c2cnn(C)c2)c1 [Compound 1]
0.0759

----------
# procedure-text: Plasma pharmacokinetics of Compound 1 in patients with advanced solid tumor malignancies and TGCT
# Type: in vivo, human
# details: human, plasma, oral, 20 mg, Cohort 3 20 mg QD x 5 d, QW maintenance dose; C2D1; Geo Mean; read-out: AUC0-8 h
readout-label: AUC(0-t) (ng·h/mL)
One number for each entry, in ng·h/mL.

Could you share which AUC(0-t) value was measured for "Cc1nc(-c2cnc(NC(C)C)n(C)c2=O)ccc1Oc1ccnc(-c2cnn(C)c2)c1" ?
3380

----------
# procedure-text: Plasma pharmacokinetics of Compound 1 in patients with advanced solid tumor malignancies and TGCT
# Type: in vivo, human
# details: human, plasma, oral, 20 mg, Cohort 3 20 mg QD x 5 d, QW maintenance dose; Day -7; Geo Mean; read-out: AUC0-8 h
readout-label: AUC(0-t) (ng·h/mL)
One number for each entry, in ng·h/mL.

Could you share which AUC(0-t) value was measured for "Cc1nc(-c2cnc(NC(C)C)n(C)c2=O)ccc1Oc1ccnc(-c2cnn(C)c2)c1" ?
1320

----------
# procedure-text: Plasma pharmacokinetics of Compound 1 in patients with advanced solid tumor malignancies and TGCT
# Type: in vivo, human
# details: human, plasma, oral, Cohort 7 20 mg QD after 3-day 50 mg QD loading dose; Day-7; GM (CV %)
readout-label: Cmax (ng/mL)
One number for each entry, in ng/mL.

What value of Cmax has been recorded for this entry: Cc1nc(-c2cnc(NC(C)C)n(C)c2=O)ccc1Oc1ccnc(-c2cnn(C)c2)c1 [Compound 1]
272

----------
# procedure-text: Plasma pharmacokinetics of Compound 1 in patients with advanced solid tumor malignancies and TGCT
# Format: in vivo, human
# details: human, plasma, oral, 30 mg, Cohort 5 30 mg Twice Weekly after 5-day QD loading dose; C1D1; Median (Min, Max)
readout-label: Tmax (h)
Answers are plain numbers, in h.

// query Tmax value for entry "Cc1nc(-c2cnc(NC(C)C)n(C)c2=O)ccc1Oc1ccnc(-c2cnn(C)c2)c1"
1

----------
# procedure-text: Plasma pharmacokinetics of Compound 1 in patients with advanced solid tumor malignancies and TGCT
# Format: in vivo, human
# details: human, plasma, oral, 30 mg, Cohort 6 30 mg QD x 5 d, BIW maintenance dose (so in the source); C2D1; Geo Mean
readout-label: Cmax

Please look up its Cmax: Cc1nc(-c2cnc(NC(C)C)n(C)c2=O)ccc1Oc1ccnc(-c2cnn(C)c2)c1 [Compound 1]
1150 ng/mL

----------
# procedure-text: Plasma pharmacokinetics of Compound 1 in patients with advanced solid tumor malignancies and TGCT
# Type: in vivo, human
# details: human, plasma, oral, 20 mg, Cohort 3 20 mg Weekly after 5-day QD loading dose; C2D1; GM (CV %); read-out: AUC0-8
readout-label: AUC(0-t) (ng·h/mL)
Numbers only, in ng·h/mL.

Need AUC(0-t), item Cc1nc(-c2cnc(NC(C)C)n(C)c2=O)ccc1Oc1ccnc(-c2cnn(C)c2)c1 [Compound 1]
3380

----------
# procedure-text: Plasma pharmacokinetics of Compound 1 in patients with advanced solid tumor malignancies and TGCT
# Assay type: in vivo, human
# details: human, plasma, oral, 20 mg, Cohort 4 20 mg Twice Weekly after 5-day QD loading dose; Day-7; Median (Min, Max)
readout-label: Tmax (h)
Give bare numbers, in h.

Value lookup for Tmax; key = "Cc1nc(-c2cnc(NC(C)C)n(C)c2=O)ccc1Oc1ccnc(-c2cnn(C)c2)c1"
4

----------
# procedure-text: Plasma pharmacokinetics of Compound 1 in patients with advanced solid tumor malignancies and TGCT
# Format: in vivo, human
# details: human, plasma, oral, 10 mg, Cohort 2 10 mg QD x 5 d, BIW maintenance dose; C1D8; Geo Mean
readout-label: Cmax (ng/mL)
Answers are plain numbers, in ng/mL.

Quick one: Cmax of "Cc1nc(-c2cnc(NC(C)C)n(C)c2=O)ccc1Oc1ccnc(-c2cnn(C)c2)c1" ?
248

----------
# procedure-text: Plasma pharmacokinetics of Compound 1 in patients with advanced solid tumor malignancies and TGCT
# Assay type: in vivo, human
# details: human, plasma, oral, 50 mg, Cohort 7 50 mg QD x 3 d, QD maintenance dose; C2D1; Geo Mean
# Description: PK analysis was conducted on all 38 patients. […] PD effects were measured by two methodologies: 1) depletion of CSF1R-expressing monocytes in peripheral blood (Cohorts 1-7) from C1D1, C1D15 and C2D1; and 2) increase of plasma levels of CSF1 and IL-34, the ligands for CSF1R (Cohorts 1-7) on C1D1, C1D15, and C2D1. […]
readout-label: Cmax (ng/mL)
One number for each entry, in ng/mL.

Endpoint output: Cmax of "Cc1nc(-c2cnc(NC(C)C)n(C)c2=O)ccc1Oc1ccnc(-c2cnn(C)c2)c1" . Value?
1250

----------
# procedure-text: Plasma pharmacokinetics of Compound 1 in patients with advanced solid tumor malignancies and TGCT
# Assay type: in vivo, human
# details: human, plasma, oral, 10 mg, Cohort 1 10 mg QD; C1D1; Geo Mean
readout-label: Cmax (ng/mL)
One number for each entry, in ng/mL.

Recorded Cmax for Cc1nc(-c2cnc(NC(C)C)n(C)c2=O)ccc1Oc1ccnc(-c2cnn(C)c2)c1 [Compound 1] , please?
155

----------
# procedure-text: Plasma pharmacokinetics of Compound 1 in patients with advanced solid tumor malignancies and TGCT
# Type: in vivo, human
# details: human, plasma, oral, Cohort 7 20 mg QD after 3-day 50 mg QD loading dose; C1D1; GM (CV %); read-out: AUC0-8
readout-label: AUC(0-t) (ng·h/mL)
Answers are plain numbers, in ng·h/mL.

Which AUC(0-t) reading was recorded for the molecule Cc1nc(-c2cnc(NC(C)C)n(C)c2=O)ccc1Oc1ccnc(-c2cnn(C)c2)c1 [Compound 1] ?
2310

----------
# procedure-text: Plasma pharmacokinetics of Compound 1 in patients with advanced solid tumor malignancies and TGCT
# Assay type: in vivo, human
# details: human, plasma, oral, 30 mg, Cohort 5 30 mg Twice Weekly after 5-day QD loading dose; C1D8; GM (CV %)
# Method: PK analysis was conducted on all 38 patients. […] PD effects were measured by two methodologies: 1) depletion of CSF1R-expressing monocytes in peripheral blood (Cohorts 1-7) from C1D1, C1D15 and C2D1; and 2) increase of plasma levels of CSF1 and IL-34, the ligands for CSF1R (Cohorts 1-7) on C1D1, C1D15, and C2D1. […]
readout-label: Cmax (ng/mL)
Numbers only, in ng/mL.

Returns the measured Cmax for the input molecule. Input: "Cc1nc(-c2cnc(NC(C)C)n(C)c2=O)ccc1Oc1ccnc(-c2cnn(C)c2)c1"
1160

----------
# procedure-text: Plasma pharmacokinetics of Compound 1 in patients with advanced solid tumor malignancies and TGCT
# Assay type: in vivo, human
# details: human, plasma, oral, 30 mg, Cohort 5 30 mg QD x 5 d, BIW maintenance dose; C1D8; Geo Mean; read-out: AUC0-8 h
readout-label: AUC(0-t)
Number first, unit second.

# input compound: Cc1nc(-c2cnc(NC(C)C)n(C)c2=O)ccc1Oc1ccnc(-c2cnn(C)c2)c1 [Compound 1] ; wanted: its AUC(0-t)
8800 ng·h/mL

----------
# procedure-text: Plasma pharmacokinetics of Compound 1 in patients with advanced solid tumor malignancies and TGCT
# Format: in vivo, human
# details: human, plasma, oral, 20 mg, Cohort 4 20 mg Twice Weekly after 5-day QD loading dose; C1D1; Median (Min, Max)
readout-label: Tmax

Which Tmax is listed for "Cc1nc(-c2cnc(NC(C)C)n(C)c2=O)ccc1Oc1ccnc(-c2cnn(C)c2)c1" ?
45 min

----------
# procedure-text: Plasma pharmacokinetics of Compound 1 in patients with advanced solid tumor malignancies and TGCT
# Format: in vivo, human
# details: human, plasma, oral, 40 mg, Cohort 6 40 mg Twice Weekly after 5-day QD loading dose; C1D1; GM (CV %); read-out: AUC0-8
readout-label: AUC(0-t) (ng·h/mL)
Give bare numbers, in ng·h/mL.

Need AUC(0-t), item Cc1nc(-c2cnc(NC(C)C)n(C)c2=O)ccc1Oc1ccnc(-c2cnn(C)c2)c1 [Compound 1]
4790

----------
# procedure-text: Plasma pharmacokinetics of Compound 1 in patients with advanced solid tumor malignancies and TGCT
# Type: in vivo, human
# details: human, plasma, oral, 10 mg, Cohort 1 10 mg QD; C2D1; Geo Mean; read-out: AUC0-8 h
# Procedure: PK analysis was conducted on all 38 patients. […] PD effects were measured by two methodologies: 1) depletion of CSF1R-expressing monocytes in peripheral blood (Cohorts 1-7) from C1D1, C1D15 and C2D1; and 2) increase of plasma levels of CSF1 and IL-34, the ligands for CSF1R (Cohorts 1-7) on C1D1, C1D15, and C2D1. […]
readout-label: AUC(0-t) (µg·h/mL)
One number for each entry, in µg·h/mL.

Item under review: "Cc1nc(-c2cnc(NC(C)C)n(C)c2=O)ccc1Oc1ccnc(-c2cnn(C)c2)c1" . Reported AUC(0-t)?
4.47
